Test system: 817829-284-R-J1-PDC complex spheroids, viability;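 also: spheroids exposed to the agents for seven days before readout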
experiment-summary: Anticancer human tumor 817829-284-R-J1-PDC patient-derived colon adenocarcinoma cell line growth inhibition [CLK]; active = viability on the fitted dose curve at most 10% of control; inactive = the rest
protocol-conditions: second compound 0.316 µM; first compound 3.16 µM
Outcomes: active, inactive

{"columns": ["compound", "label-class"],
 "data": [
  ["COc1cccc2c1C(=O)c1c(O)c3c(c(O)c1C2=O)CC(O)(C(=O)CO)CC3OC1CC(N)C(O)C(C)O1 (stereo unspecified) + CN1CCN(c2cc(C(=O)Nc3cc4cc(-c5cnn(C)c5)ccc4cn3)ccn2)CC1", "active"],
  ["O=c1[nH]cc(F)c(=O)[nH]1 + CN1CCN(c2cc(C(=O)Nc3cc4cc(-c5cnn(C)c5)ccc4cn3)ccn2)CC1", "active"],
  ["CC(=O)O[C@H]1C(=O)[C@@]2(C)[C@H]([C@H](OC(=O)c3ccccc3)[C@]3(O)C[C@H](OC(=O)[C@H](O)[C@@H](NC(=O)c4ccccc4)c4ccccc4)C(C)=C1C3(C)C)[C@]1(OC(C)=O)CO[C@@H]1C[C@@H]2O + CN1CCN(c2cc(C(=O)Nc3cc4cc(-c5cnn(C)c5)ccc4cn3)ccn2)CC1", "active"],
  ["C#Cc1c(F)ccc2cc(O)cc(-c3ncc4c(N5CC6CCC(C5)N6)nc(OCC56CCCN5CC(F)C6)nc4c3F)c12 (stereo unspecified) + CN1CCN(c2cc(C(=O)Nc3cc4cc(-c5cnn(C)c5)ccc4cn3)ccn2)CC1", "active"],
  ["CC(Nc1ccc2c(c1)OCCn1cc(N3C(=O)OCC3C(F)F)nc1-2)C(N)=O (stereo unspecified) + CNC(=O)c1ccc(Nc2nc(OC3CCCC3)c3c(-c4ccc5nc(C)oc5c4)c[nH]c3n2)c(OC)c1", "inactive"],
  ["O=C(c1cc(Cc2n[nH]c(=O)c3ccccc23)ccc1F)N1CCN(C(=O)C2CC2)CC1 + CN1CCN(c2cc(C(=O)Nc3cc4cc(-c5cnn(C)c5)ccc4cn3)ccn2)CC1", "active"]
]}
